molecular target: UniProt P07607
Sequence (P07607 whole entry): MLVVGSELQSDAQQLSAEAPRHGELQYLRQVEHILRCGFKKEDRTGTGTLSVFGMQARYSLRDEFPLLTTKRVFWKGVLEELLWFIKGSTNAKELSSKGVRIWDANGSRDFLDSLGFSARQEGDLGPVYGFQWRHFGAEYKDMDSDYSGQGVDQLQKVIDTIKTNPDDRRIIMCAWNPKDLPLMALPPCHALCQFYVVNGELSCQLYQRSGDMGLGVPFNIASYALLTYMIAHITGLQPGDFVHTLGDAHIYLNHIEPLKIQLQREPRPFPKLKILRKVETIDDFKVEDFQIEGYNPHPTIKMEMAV
Lab note: cut-off is 10 µM. Strictly less in IC50 is t. Exactly 10 µM or more is f.

[
  {
    "COMPOUND": "C#CCN(Cc1ccc2nc(C)nc(O)c2c1)c1ccc2c(c1)CN([C@@H](CCC(=O)O)C(=O)O)C2=O",
    "ASSAY_TARGET": "UniProt P07607",
    "DISCRETE_LABEL": "t"
  },
  {
    "COMPOUND": "Cc1nc(O)c2cc(N(C)Cc3ccc(C(=O)N[C@@H](CCC(=O)O)C(=O)O)s3)ccc2n1",
    "ASSAY_TARGET": "UniProt P07607",
    "DISCRETE_LABEL": "t"
  },
  {
    "COMPOUND": "Cc1nc(O)c2cc(N(CCO)Cc3ccc(C(=O)N[C@@H](CCC(=O)O)C(=O)O)s3)ccc2n1",
    "ASSAY_TARGET": "UniProt P07607",
    "DISCRETE_LABEL": "f"
  },
  {
    "COMPOUND": "Cc1nc(O)c2cc(NCc3ccc(C(=O)N[C@@H](CCC(=O)O)C(=O)O)s3)ccc2n1",
    "ASSAY_TARGET": "UniProt P07607",
    "DISCRETE_LABEL": "t"
  },
  {
    "COMPOUND": "Cc1nc(O)c2cc(NC(C)c3ccc(C(=O)N[C@@H](CCC(=O)O)C(=O)O)cc3)ccc2n1 (stereo partly specified)",
    "ASSAY_TARGET": "UniProt P07607",
    "DISCRETE_LABEL": "t"
  },
  {
    "COMPOUND": "Cc1nc2ccc(CNc3ccc(C(=O)N[C@@H](CCC(=O)O)C(=O)O)s3)cc2c(=O)[nH]1",
    "ASSAY_TARGET": "UniProt P07607",
    "DISCRETE_LABEL": "f"
  }
]

====

Recorded measurements of Ratio, one per entry
test: Ratio of IC50 of L1210:1565 cells to that of IC50 of L1210 cells; assay type: functional

[
  {
    "SMILES_REPR": "Cc1nc(O)c2cc(N(C)Cc3ccc(C(=O)N[C@@H](CCC(=O)O)C(=O)O)s3)ccc2n1",
    "Ratio": 7
  },
  {
    "SMILES_REPR": "Cc1nc(=O)c2cc(CN(C)c3ccc(C(=O)N[C@@H](CCC(=O)O)C(=O)O)s3)ccc2[nH]1",
    "Ratio": 137
  },
  {
    "SMILES_REPR": "Cc1nc(O)c2cc(N(C)Cc3ccc(C(=O)N[C@@H](CCC(=O)O)C(=O)O)cc3)ccc2n1",
    "Ratio": 11
  },
  {
    "SMILES_REPR": "Cc1nc2ccc(CN(C)c3ccc(C(=O)N[C@@H](CCC(=O)O)C(=O)O)cc3)cc2c(=O)[nH]1",
    "Ratio": 38
  }
]
